Organism: Homo sapiens
Experiment: Inhibitory activity against LPS-stimulated IL-1 beta release from human monocytes
Format: functional
IC50 strictly less than 0.2 µM = satisfied. Otherwise not satisfied.

Please indicate whether the reported IC50 of CC(=O)Oc1cc2c(c(C)c1OC(C)=O)CC=C1[C@@]3(C)CCC(=O)C(C)=C3CC[C@]12C is strictly below 0.2 µM.
satisfied

Determine if CC(=O)Oc1cc2c(c(C)c1OC(C)=O)CC=C1C(C)(C)[C@H](OC(C)=O)CC[C@]12C shows IC50 strictly lower than 0.2 µM.
satisfied

Please check: IC50 for COc1cc2c(c(C)c1O)CC=C1C(C)(C)C(=O)CCC12C (stereo not drawn) , strictly under 0.2 µM or not?
not satisfied

Report whether reported IC50 is lower than 0.2 µM (strictly) for Cc1c(O)c(O)cc2c1CC=C1C(C)(C)C(=O)CCC12C (stereo not drawn)
not satisfied

Say whether its IC50 is strictly beneath 0.2 µM. Entry: CC(=O)Oc1cc2c(cc1OC(C)=O)[C@]1(C)CC[C@H]3C(C)(C)C(=O)CC[C@]3(C)C1=CC2
satisfied

We next turn to a different compound, shown below.
IC50 under 0.2 µM? Item: CC(=O)Oc1cc2c(c(C)c1OC(C)=O)CC(C(C)=O)=C1[C@@]2(C)CC[C@H]2OC(=O)C[C@]12C
not satisfied

====

Species on record: Homo sapiens
Assay: Inhibitory activity against LPS-stimulated IL-1 beta release from human monocytes
Format: functional
Would you kindly list pIC50 for each of these compounds?
Answers are plain numbers, as −log10 of the molar value.

Record excerpt, results attached:
Identify pIC50 associated with the compound CC(=O)Oc1cc2c(c(C)c1OC(C)=O)CC=C1[C@@]2(C)CC[C@H]2OC(=O)C[C@]12C
6.70

Hello, please tell me recorded pIC50 for this one: CC(=O)Oc1cc2c(c(C)c1OC(C)=O)CC=C1C(C)(C)C(=O)CC[C@]12C
6.70

Can you give me pIC50 for all of these, one by one?
1. CC(=O)Oc1cc2c(c(C)c1OC(C)=O)CC=C1C(C)(C)C(=O)CCC12C (configuration not stated)
2. CC(=O)Oc1cc2c(c(C)c1OC(C)=O)C=CC1=C(C)C(=O)CCC12C (configuration not stated)
3. CC(=O)Oc1cc2c(c(C)c1OC(C)=O)CCC1=C(C)C(=O)CCC12C (configuration not stated)
4. CC1=C(O)C(=O)C=C2C1=CC=C1[C@@]2(C)CC[C@@]2(C)[C@@H]3C[C@](C)(C(=O)O)CC[C@]3(C)CC[C@]12C [CELASTROL]
5. CCOC(=O)C[C@@]1(C)C(=O)CC[C@@]2(C)c3cc(OC(C)=O)c(OC(C)=O)cc3CC[C@H]12

1. 6.70
2. 6.15
3. 5.62
4. 7.40
5. 5.66

These data points were gathered from ChEMBL document CHEMBL1130726.
